- ASSAYED SYSTEM: Mtb AccD6 (Mycobacterium tuberculosis, UniProt P9WQH5)
- Sequence (P9WQH5 whole entry, looked up): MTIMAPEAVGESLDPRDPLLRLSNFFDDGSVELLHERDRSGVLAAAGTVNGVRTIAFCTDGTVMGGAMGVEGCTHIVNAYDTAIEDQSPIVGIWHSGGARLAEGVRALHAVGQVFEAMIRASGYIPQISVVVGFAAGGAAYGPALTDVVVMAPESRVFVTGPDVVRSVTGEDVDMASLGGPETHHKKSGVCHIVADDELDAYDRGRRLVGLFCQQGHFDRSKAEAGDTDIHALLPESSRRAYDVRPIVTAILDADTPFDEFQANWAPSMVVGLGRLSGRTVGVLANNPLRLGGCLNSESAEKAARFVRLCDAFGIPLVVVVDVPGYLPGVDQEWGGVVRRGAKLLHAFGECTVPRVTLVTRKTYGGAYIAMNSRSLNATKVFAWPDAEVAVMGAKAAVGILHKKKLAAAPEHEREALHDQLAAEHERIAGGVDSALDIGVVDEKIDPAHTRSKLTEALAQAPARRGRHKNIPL
- PROTOCOL SUMMARY: biochemical
- Assay type: biochemical
- CONDITION DESCRIPTION: 300 μM malonyl-CoA, inhibitor 10 μM to 2000 μM; read-out: IC50
EXPERIMENTAL ENDPOINT: pIC50
In plain terms, pIC50 is the concentration in mol/L turned into minus its base-10 logarithm.

Which pIC50 is reported for this molecule? CNC(=O)Cc1ccc(Oc2nc3ccc(Cl)cc3s2)cc1O
6.68

* * *

- PROTOCOL SUMMARY: in vivo
- CONDITION DESCRIPTION: rat, terminal phase
EXPERIMENTAL ENDPOINT: half-life

Which half-life is reported for this compound? CCOC(=O)[C@@H](C)Oc1ccc(Oc2nc3ccc(Cl)cc3o2)cc1 [fenoxaprop-p-ethyl]
68 to 75 h
